All figures here come from the RepoRT retention time repository (doi:10.1021/acs.analchem.2c02893).

# test_method_notes: RP, Thermo Scientific Acclaim RSLC 120 C18, 100 × 2.1 mm, 2.2 µm, 30 °C, 0.2 mL/min, estimated dead time 1.1 min; A: 90% water + 10% methanol + 0.01% formic acid + 5 mM ammonium formate, pH 3.61; B: methanol + 0.01% formic acid + 5 mM ammonium formate, pH 3.61; gradient (min/%B) 0/1 1/1 2/39 13/99.9 15/99.9 15.1/1 20.1/1
# condition: stereoisomer not certain
attribute_measured: LC retention time (min)
Numbers only, in min.

# annotated cases, reported LC retention time shown
| compound | recorded_measurement |
| --- | --- |
| CCC(C)(C)c1ccc(CC(C)CN2CC(C)OC(C)C2)cc1 (centres undefined) | 12.9 |
| Cc1ccccc1CN1CCN(CCOC(c2ccccc2)c2ccccc2Cl)CC1 (centres undefined) | 10.8 |
| CNCCC=C1c2ccccc2COc2ccccc21 [Doxepin-Nor] | 7.03 |
| CC(C)NC(=O)c1ccccc1O [Salicylamide-N-Isopropyl] | 7.14 |
| CCN(CC)CCOC(=O)c1ccc(N)cc1 | 3.21 |
| CCCCn1cc(C(=O)c2cccc3ccc(C)cc23)c2ccccc21 | 12.3 |

Provide LC retention time for all items below, preserving their order.
1. CCOP(=S)(OCC)N1C(=O)c2ccccc2C1=O
2. CCCCn1cc(C(=O)c2cccc3ccccc23)c2cc(O)ccc21
3. NN1CC(=O)N2C(Cc3c([nH]c4ccccc34)C2c2ccc3c(c2)OCO3)C1=O (centres undefined)

OUTPUT:
[10.2, 11.3, 7.84]

###

# test_method_notes: RP, Thermo Scientific Acclaim RSLC 120 C18, 100 × 2.1 mm, 2.2 µm, 30 °C, 0.2 mL/min, estimated dead time 1.1 min; A: 90% water + 10% methanol + 0.01% formic acid + 5 mM ammonium formate, pH 3.61; B: methanol + 0.01% formic acid + 5 mM ammonium formate, pH 3.61; gradient (min/%B) 0/1 1/1 2/39 13/99.9 15/99.9 15.1/1 20.1/1
# condition: stereoisomer not certain
attribute_measured: LC retention time (min)
Give bare numbers, in min.

| compound | LC retention time [min] |
| --- | --- |
| C=C(C)C1CCC(C)=CC1c1c(O)cc(CCCCC)cc1O (centres undefined) [Cannabidiol] | 12.7 |
| COc1cc(CCNCc2ccccc2OC)c(OC)cc1I [25I-NBoMe] | 8.03 |
| CCCc1nn(C)c2c(=O)[nH]c(-c3cc(S(=O)(=O)N4CCN(Cc5ccccc5)CC4)ccc3OCC)nc12 [Sildenafil-Benzyl] | 11.5 |
| CCC(=O)OC(Cc1ccccc1)(c1ccccc1)C(C)CN(C)C (centres undefined) [Dextropropoxyphene] | 7.73 |
| O=[N+]([O-])/N=C1\NCCN1Cc1ccc(Cl)nc1 [Imidacloprid] | 4.76 |
| Cc1cccc(C)c1OCC(C)N (centres undefined) [Mexiletine] | 5.59 |
| NCC(O)COc1ccc(CC(N)=O)cc1 (centres undefined) [Atenolol-desisopropyl] | 2 |
| Clc1ccc2c(c1)C(c1ccccc1)=NCc1nncn1-2 [Estazolam] | 8.14 |

Read the next record carefully.
INPUT: Give its LC retention time value. Item: COc1ccc2[nH]cc(CC(=O)O)c2c1 [MeOT (5-)]
OUTPUT: 4.01

###

# test_method_notes: RP, Thermo Scientific Acclaim RSLC 120 C18, 100 × 2.1 mm, 2.2 µm, 30 °C, 0.2 mL/min, estimated dead time 1.1 min; A: 90% water + 10% methanol + 0.01% formic acid + 5 mM ammonium formate, pH 3.61; B: methanol + 0.01% formic acid + 5 mM ammonium formate, pH 3.61; gradient (min/%B) 0/1 1/1 2/39 13/99.9 15/99.9 15.1/1 20.1/1
# condition: stereoisomer not certain
attribute_measured: LC retention time (min)
Answers are plain numbers, in min.

Here is how some molecules turned out for LC retention time.
| molecule | measurement_units | LC retention time |
| --- | --- | --- |
| N#Cc1c[nH]cc1-c1cccc2c1OC(F)(F)O2 | min | 9.48 |
| Cc1ncc2n1-c1ccc(Cl)cc1C(c1ccccc1F)=NC2 | min | 8.63 |
| CNC1C(C)OC(OC2C(C)OC(OC3C(C)=CCC4CC(CC5(C=CC(C)C(C(C)C)O5)O4)OC(=O)C4C=C(C)C(O)C5OCC(=CC=CC3C)C45O)CC2OC)CC1OC (stereo not drawn) | min | 12 |
| CCCc1nn(C)c2c(=O)[nH]c(-c3cc(C(C)=O)ccc3OCC)nc12 | min | 9.81 |
| Clc1ccccc1CN1CCc2sccc2C1 | min | 9.25 |

Provide each entry's LC retention time from the list below.
1. O=C(Oc1cccc2cccnc12)c1nn(CCCCCF)c2ccccc12
2. CN(C)C(CCOc1cccc2ccccc12)c1ccccc1 (stereo not drawn)
3. O=C(O)COC(=O)Cc1ccccc1Nc1c(Cl)cccc1Cl
4. CCC(c1cccc(O)c1)C(C)CN(C)C (stereo not drawn)
5. CN1CCCC(CC2c3ccccc3Sc3ccccc32)C1 (stereo not drawn)
6. CCCc1nc(C)c2c(=O)[nH]c(-c3cc(C(=O)CN4CCN(CC)CC4)ccc3OCC)nn12

OUTPUT:
1. 10.3
2. 8.34
3. 9.2
4. 5.01
5. 8.51
6. 7.16

Dear reader, for each entry below, please note its LC retention time.
1. CCN(CC)CCOCCOC(=O)C(CC)(CC)c1ccccc1
2. Cc1cc(NS(=O)(=O)c2ccc(N)cc2)on1
3. COP(=S)(OC)Oc1ccc([N+](=O)[O-])c(C)c1
4. C#CCOc1cc(-n2nc(C(C)(C)C)oc2=O)c(Cl)cc1Cl
5. CCCCCCC(C)(C)c1cc(O)c2c(c1)OC(C)(C)C1CC=C(CO)CC21 (stereo not drawn)

OUTPUT:
[8.04, 4.39, 9.92, 11.2, 13.5]

Parameter requested: LC retention time. Apply to each item below.
1. COP(=S)(OC)Oc1c(Cl)cc(C)cc1Cl
2. Nc1ccc(S(=O)(=O)c2ccc(N)cc2)cc1

OUTPUT:
[11.4, 4.13]

###

Give LC retention time for every item shown.
# test_method_notes: RP, Thermo Scientific Acclaim RSLC 120 C18, 100 × 2.1 mm, 2.2 µm, 30 °C, 0.2 mL/min, estimated dead time 1.1 min; A: 90% water + 10% methanol + 0.01% formic acid + 5 mM ammonium formate, pH 3.61; B: methanol + 0.01% formic acid + 5 mM ammonium formate, pH 3.61; gradient (min/%B) 0/1 1/1 2/39 13/99.9 15/99.9 15.1/1 20.1/1
# condition: stereoisomer not certain
Numbers only, in min.

// known answers, use as guide
| compound | measurement_units | LC retention time |
| --- | --- | --- |
| CCC(CC)(CNC(=O)CCCO)c1cccc(OC)c1 [Embutramide] | min | 8.98 |
| Cc1cc(NS(=O)(=O)c2ccc(NO)cc2)no1 [Sulfamethoxazole hydroxylamine] | min | 4.54 |
| COC(=O)CCCOc1ccc(Cl)cc1Cl | min | 11.3 |
| COP(=O)(OC)OC(=CCl)c1cc(Cl)c(Cl)cc1Cl [Tetrachlorvinphos (Stirofos)] | min | 10.6 |
| CC(NCCC(c1ccccc1)c1ccccc1)c1ccccc1 (centres undefined) | min | 8.54 |
| CCCCC(=O)N(Cc1ccc(-c2ccccc2-c2nn[nH]n2)cc1)C(C(=O)O)C(C)C (centres undefined) | min | 9.21 |
| CCOP(=S)(Oc1ccc([N+](=O)[O-])cc1)c1ccccc1 (centres undefined) | min | 11.7 |
| CCOC(=O)CCN(Cc1ccccc1)SN(C)C(=O)ON=C(C)SC | min | 10.8 |

INPUT: Item under review: O=C(OC1CC2CCC(C1)[N+]21CCCC1)C(O)(c1ccccc1)c1ccccc1 (centres undefined) . Reported LC retention time?
OUTPUT: 5.72

###

Give measured LC retention time for each item. Keep answers brief.
# test_method_notes: RP, Thermo Scientific Acclaim RSLC 120 C18, 100 × 2.1 mm, 2.2 µm, 30 °C, 0.2 mL/min, estimated dead time 1.1 min; A: 90% water + 10% methanol + 0.01% formic acid + 5 mM ammonium formate, pH 3.61; B: methanol + 0.01% formic acid + 5 mM ammonium formate, pH 3.61; gradient (min/%B) 0/1 1/1 2/39 13/99.9 15/99.9 15.1/1 20.1/1
# condition: stereoisomer not certain
Report the figure along with its unit, number first.

| compound | LC retention time |
| --- | --- |
| CN1CCN(C)C1=O | 3.53 min |

Your task in this section: give LC retention time for each listed record.
1. CN1CCCCC(n2cc(C(=O)c3cccc4ccccc34)c3ccccc32)C1 (centres undefined)
2. CCOc1ccc(NC(=O)CC(C)O)cc1 (centres undefined)
3. COC(=O)c1sccc1S(=O)(=O)NC(=O)Nc1nc(C)nc(OC)n1
4. CC(O)CCn1cc(C(=O)c2cccc3ccccc23)c2ccccc21 (centres undefined)
5. CN(C(=O)COc1nc2ccccc2s1)c1ccccc1
6. CC(Cn1cnc2c(N)ncnc21)OCP(=O)(O)O (centres undefined)
7. N#Cc1c[nH]cc1-c1cccc(Cl)c1Cl

OUTPUT:
["8.61 min", "6.27 min", "6.24 min", "9.91 min", "9.83 min", "2.69 min", "8.91 min"]

INPUT: Give the measured LC retention time of "CCCCCn1cc(C(=O)c2cccc3ccccc23)cc1-c1cccc(F)c1" .
OUTPUT: 13 min
